- SYSTEM TESTED: T1, human 5T4ECDHis (mature protein of SEQ ID NO: 99) (human, UniProt Q13641 32-355)
- T1 construct: ECD of human 5T4 (aa 1-355 of Uniprot Q13641) with C-terminal His tag; residues 1-31 are the signal peptide; also called ECD of human 5T4 with a C-terminal His tag
- T1 sequence: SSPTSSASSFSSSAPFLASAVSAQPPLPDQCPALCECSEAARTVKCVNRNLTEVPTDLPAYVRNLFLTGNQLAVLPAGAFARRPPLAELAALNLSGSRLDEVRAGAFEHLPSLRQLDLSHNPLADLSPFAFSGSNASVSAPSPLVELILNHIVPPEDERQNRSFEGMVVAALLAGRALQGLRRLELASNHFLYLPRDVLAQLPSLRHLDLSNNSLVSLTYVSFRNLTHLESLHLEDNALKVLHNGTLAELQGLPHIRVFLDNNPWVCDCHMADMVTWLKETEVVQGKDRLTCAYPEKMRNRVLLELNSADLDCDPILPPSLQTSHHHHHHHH
- EXPERIMENTAL PROTOCOL: BLI cross-block; competitor (immobilised): IgG1-5T4-A1-F405L
Values of corrected association response strictly less than 0.8 nm map to satisfied, and values of at least 0.8 nm map to not satisfied.

BINDER	CAT
IgG1-5T4-127-FEAR (antibody, V domains shown, Monospecific, bivalent human IgG1 kappa with L234F, L235E, D265A, K409R (FEAR)) VH: EVQLLESRGGLVQPGGSLRLSCAASGFTFSSYAMSWVRQAPGKGLEWVSTISGSGGSTYYADSVKGRFTISRDNSKKTLYLQMNSLRAEDTAVYYCAKDWGSGSYPAEYFQHWGQGTLVTVSS VL: EIVLTQSPATLSLSPGERATLSCRASQSVSSYLAWYQQKPGQAPRLLIYDASNRATGIPARFSGSGSGTDFTLTISSLEPEDFAVYYCQQRSNWLMYTFGQGTKLEIK	not satisfied
IgG1-5T4-226-FEAR (antibody, V domains shown, Monospecific, bivalent human IgG1 kappa with L234F, L235E, D265A, K409R (FEAR); also called IgG1-5T4-226-FEAR-FITC) VH: QVQLQQWGAGLLKPSETLSLTCAVYGGSFSGYYWSWIRQPPGKGLEWIGEIDHSGSTNYNPSLKSRVTISVDTSKNQFSLKLSSVTAADTAVYYCAAWFGELWDYYYGMDVWGQGTTVTVSS VL: EIVLTQSPATLSLSPGERATLSCRASQSVSSFLAWYQQKPGQAPRLLIYDASNRATGIPARFSGSGSGTDFTLTISSLEPEDFAVYYCQQRSNWPLTFGQGTRLEIK	not satisfied
IgG1-5T4-A3-F405L (antibody, V domains shown, Variable region of A3 of WO2007106744 in a human IgG1 backbone with F405L; also called surrogate A3 antibody) VH: EVQLVESGGGLVQPKGSLKLSCAASGFTFNTYAMNWVRQAPGKGLEWVARIRSKSNNYATYYADSVKDRFTISRDDSQSMLYLQMNNLKTEDTAMYYCVRQWDYDVRAMNYWGQGTSVTVSS VL: DIVMTQSHIFMSTSVGDRVSITCKASQDVDTAVAWYQQKPGQSPKLLIYWASTRLTGVPDRFTGSGSGTDFTLTISNVQSEDLADYFCQQYSSYPYTFGGGTKLEIK	satisfied
IgG1-5T4-085-FEAR (antibody, V domains shown, Monospecific, bivalent human IgG1 kappa with L234F, L235E, D265A, K409R (FEAR)) VH: EVQLLESGGGLVQPGGSLRLSCAASGFTFSSYAMSWVRQAPGKGLEWVSAISGSGGSTYNADSVKGRFTIFRDNSKNTLYLHMNSLRAEDTAVYYCARDPGYNNVEYLDHWGQGTLVTVSS VL: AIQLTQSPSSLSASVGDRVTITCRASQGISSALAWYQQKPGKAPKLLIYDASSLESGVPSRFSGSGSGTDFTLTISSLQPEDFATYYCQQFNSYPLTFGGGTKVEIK	satisfied

Determine whether this binder shows corrected association response lower than 0.8 nm (ties excluded): IgG1-5T4-076-FEAR (antibody, V domains shown, Monospecific, bivalent human IgG1 kappa with L234F, L235E, D265A, K409R (FEAR)) VH: QVQLVQSGAEVKKPGASVKVSCKASGYTFTSYGISWVRQAPGQGLEWMGWISAYNGNTNYAQKLQGRVTMTTDTSTRTAYMELRSLRSDDTAVYYCARDPGYFDWLYGDYWGQGTLVTVSS VL: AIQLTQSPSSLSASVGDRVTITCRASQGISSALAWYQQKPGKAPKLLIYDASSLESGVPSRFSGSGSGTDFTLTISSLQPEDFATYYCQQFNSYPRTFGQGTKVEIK
satisfied

Is 0.8 nm strictly greater than the binder's reported corrected association response? binder: IgG1-5T4-A1-F405L (antibody, V domains shown, Variable region of A1 of WO2007106744 in a human IgG1 backbone with F405L; also called surrogate A1 antibody) VH: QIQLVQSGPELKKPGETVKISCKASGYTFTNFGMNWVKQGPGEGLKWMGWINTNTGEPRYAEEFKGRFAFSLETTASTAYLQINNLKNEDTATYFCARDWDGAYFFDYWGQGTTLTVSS VL: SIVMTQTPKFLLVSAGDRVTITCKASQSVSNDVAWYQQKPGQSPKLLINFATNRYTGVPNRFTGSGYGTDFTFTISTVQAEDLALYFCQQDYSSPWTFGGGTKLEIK
satisfied

Input IgG1-5T4-106-FEAR (antibody, V domains shown, Monospecific, bivalent human IgG1 kappa with L234F, L235E, D265A, K409R (FEAR)) VH: EVQLVQSGAEVKKPGESLKISCKGSGYRFTSYWIGWVRQMPGKGLEWMGIIYPGDSDARYSPSFQGQVTISADKSISTAYLQWSSLKASDTGMYYCARSVLFDYWGQGTLVTVSS VL: AIQLTQSPSSLSASVGDRVTITCRASQGISSALAWYQQKPGKAPKLLIYDVSNLESGVPSRFSGSGSGTDFTLTISSLQPEDFATYYCQQFNSYPHTFGQGTKLEIK ; condition: corrected association response strictly below 0.8 nm. Does it hold?
not satisfied
